Source: PubChem BioAssay AID1963843

Tested on: 616215-338-R-J1-PDC complex spheroid viability
ASSAY_NAME: Anticancer human tumor 616215-338-R-J1-PDC patient-derived colon adenocarcinoma cell line growth inhibition [POLQ]
DETAILS: second compound 1 µM; first compound 3.16 µM; stronger effect = lower value
Provide the reported viability, T/C of each item.
// return numeric value only (unit: %, not printed)

[Q] // query viability, T/C value for entry COc1cc2cc(C(=O)CCC(=O)O)sc2cc1OC + Nc1ccc(C#CCN(C(=O)Cc2ncc(C(F)(F)F)cc2C(F)(F)F)c2ccc(F)cc2)nn1
[A] 115

[Q] // query viability, T/C value for entry CCc1cc2c(N3CCc4c(cc(Cn5ccnc5)cc4-c4cn(C)nc4C(F)(F)F)C3=O)ccnc2c(OC)n1 + Cc1cccc(N(C)C(=O)C2C(O)CCN2c2nc(C)cc(C(F)(F)F)c2C#N)c1
[A] 58.8

[Q] // query viability, T/C value for entry CC1COCCN1c1cc(C2(S(C)(=N)=O)CC2)nc(-c2ccnc3[nH]ccc23)n1 (stereo unspecified) + Nc1ccc(C#CCN(C(=O)Cc2ncc(C(F)(F)F)cc2C(F)(F)F)c2ccc(F)cc2)nn1
[A] 59.9

[Q] // query viability, T/C value for entry Nc1ccn(C2OC(CO)C(O)C2(F)F)c(=O)n1 (stereo unspecified) + Nc1ccc(C#CCN(C(=O)Cc2ncc(C(F)(F)F)cc2C(F)(F)F)c2ccc(F)cc2)nn1
[A] 13.1

[Q] // query viability, T/C value for entry CC1COCCN1c1cc(C2(S(C)(=N)=O)CC2)nc(-c2ccnc3[nH]ccc23)n1 (stereo unspecified) + Cc1cccc(N(C)C(=O)C2C(O)CCN2c2nc(C)cc(C(F)(F)F)c2C#N)c1
[A] 97

[Q] // query viability, T/C value for entry CC(C)n1c(=O)n(C)c2cnc3cc(F)c(-c4ccc(OCCCN5CCCCC5)nc4)cc3c21 + Nc1ccc(C#CCN(C(=O)Cc2ncc(C(F)(F)F)cc2C(F)(F)F)c2ccc(F)cc2)nn1
[A] 97.4

[Q] // query viability, T/C value for entry C#Cc1c(F)ccc2cc(O)cc(-c3ncc4c(N5CC6CCC(C5)N6)nc(OCC56CCCN5CC(F)C6)nc4c3F)c12 (stereo unspecified) + COC1C(OC(N)=O)C(O)C(Oc2ccc3c(O)c(NC(=O)c4ccc(O)c(CC=C(C)C)c4)c(=O)oc3c2C)OC1(C)C
[A] 103

[Q] // query viability, T/C value for entry COc1ccc([C@@H](O)c2cc(-c3ncnc4cc(N5CCOCC5)ccc34)c(F)cc2Cl)nn1 + COC1C(OC(N)=O)C(O)C(Oc2ccc3c(O)c(NC(=O)c4ccc(O)c(CC=C(C)C)c4)c(=O)oc3c2C)OC1(C)C
[A] 110

[Q] // query viability, T/C value for entry CNCc1ccc(-c2[nH]c3cc(F)cc4c3c2CCNC4=O)cc1 + Cc1cccc(N(C)C(=O)C2C(O)CCN2c2nc(C)cc(C(F)(F)F)c2C#N)c1
[A] 112

[Q] // query viability, T/C value for entry COc1cc2cc(C(=O)CCC(=O)O)sc2cc1OC + COC1C(OC(N)=O)C(O)C(Oc2ccc3c(O)c(NC(=O)c4ccc(O)c(CC=C(C)C)c4)c(=O)oc3c2C)OC1(C)C
[A] 99.7

[Q] // query viability, T/C value for entry O=C(Nc1ccc(O)c(NS(=O)(=O)c2ccc(F)cc2)c1)c1ccc(-c2ccccc2)cc1 + Nc1ccc(C#CCN(C(=O)Cc2ncc(C(F)(F)F)cc2C(F)(F)F)c2ccc(F)cc2)nn1
[A] 91.2

###

System: 616215-338-R-J1-PDC complex spheroid viability
ASSAY_NAME: Anticancer human tumor 616215-338-R-J1-PDC cell line growth inhibition [POLQ];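 note: spheroids exposed to compounds for one week before readout; percent viability relative to DMSO vehicle wells taken as 100%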
DETAILS: second compound 3.16 µM; first compound 0.1 µM; stronger effect = lower value
Method: Multicellular complex tumor spheroid response to Polymerase (POL) inhibitors (novobiocin, ART-558, RP6685) in combination with a variety of drugs and investigational agents in selected tumor cell lines The POL inhibitors (novobiocin, ART-558, and RP6685) were evaluated both individually and in combination with standard of care and investigational anticancer small molecules within a complex spheroid model of solid tumors. . […]
Provide the reported viability, T/C of each item.
// return numeric value only (unit: %, not printed)

[Q] // query viability, T/C value for entry CC1COCCN1c1cc(C2(O)CC3CCC(C2)O3)c2cnn(-c3ccn[nH]3)c2n1 (stereo not given) + COC1C(OC(N)=O)C(O)C(Oc2ccc3c(O)c(NC(=O)c4ccc(O)c(CC=C(C)C)c4)c(=O)oc3c2C)OC1(C)C
[A] 86.8

[Q] // query viability, T/C value for entry COc1cccc2c1C(=O)c1c(O)c3c(c(O)c1C2=O)CC(O)(C(=O)CO)CC3OC1CC(N)C(O)C(C)O1 (stereo not given) + COC1C(OC(N)=O)C(O)C(Oc2ccc3c(O)c(NC(=O)c4ccc(O)c(CC=C(C)C)c4)c(=O)oc3c2C)OC1(C)C
[A] 105

[Q] // query viability, T/C value for entry C#Cc1c(F)ccc2cc(O)cc(-c3ncc4c(N5CC6CCC(C5)N6)nc(OCC56CCCN5CC(F)C6)nc4c3F)c12 (stereo not given) + COC1C(OC(N)=O)C(O)C(Oc2ccc3c(O)c(NC(=O)c4ccc(O)c(CC=C(C)C)c4)c(=O)oc3c2C)OC1(C)C
[A] 109

[Q] // query viability, T/C value for entry COc1ccc([C@@H](O)c2cc(-c3ncnc4cc(N5CCOCC5)ccc34)c(F)cc2Cl)nn1 + COC1C(OC(N)=O)C(O)C(Oc2ccc3c(O)c(NC(=O)c4ccc(O)c(CC=C(C)C)c4)c(=O)oc3c2C)OC1(C)C
[A] 104

[Q] // query viability, T/C value for entry Cn1ncnc1[C@H]1c2n[nH]c(=O)c3cc(F)cc(c23)N[C@@H]1c1ccc(F)cc1 + Cc1cccc(N(C)C(=O)C2C(O)CCN2c2nc(C)cc(C(F)(F)F)c2C#N)c1
[A] 97.1

[Q] // query viability, T/C value for entry COc1cc(C2c3cc4c(cc3C(OC3OC5COC(C)OC5C(O)C3O)C3COC(=O)C23)OCO4)cc(OC)c1O (stereo not given) + Nc1ccc(C#CCN(C(=O)Cc2ncc(C(F)(F)F)cc2C(F)(F)F)c2ccc(F)cc2)nn1
[A] 67.5

[Q] // query viability, T/C value for entry C=CC(=O)N1CCN(c2nc(=O)n(-c3c(C)ccnc3C(C)C)c3nc(-c4c(O)cccc4F)c(F)cc23)C(C)C1 (stereo not given) + Cc1cccc(N(C)C(=O)C2C(O)CCN2c2nc(C)cc(C(F)(F)F)c2C#N)c1
[A] 122

[Q] // query viability, T/C value for entry COc1cccc(OCCCN)c1-c1cc(Nc2cnc(C#N)cn2)n[nH]1 + COC1C(OC(N)=O)C(O)C(Oc2ccc3c(O)c(NC(=O)c4ccc(O)c(CC=C(C)C)c4)c(=O)oc3c2C)OC1(C)C
[A] 74.2

[Q] // query viability, T/C value for entry CC(C)n1c(=O)n(C)c2cnc3cc(F)c(-c4ccc(OCCCN5CCCCC5)nc4)cc3c21 + Nc1ccc(C#CCN(C(=O)Cc2ncc(C(F)(F)F)cc2C(F)(F)F)c2ccc(F)cc2)nn1
[A] 97.8

[Q] // query viability, T/C value for entry Nc1ccn(C2OC(CO)C(O)C2(F)F)c(=O)n1 (stereo not given) + Nc1ccc(C#CCN(C(=O)Cc2ncc(C(F)(F)F)cc2C(F)(F)F)c2ccc(F)cc2)nn1
[A] 19.6

[Q] // query viability, T/C value for entry C#Cc1c(F)ccc2cc(O)cc(-c3ncc4c(N5CC6CCC(C5)N6)nc(OCC56CCCN5CC(F)C6)nc4c3F)c12 (stereo not given) + Nc1ccc(C#CCN(C(=O)Cc2ncc(C(F)(F)F)cc2C(F)(F)F)c2ccc(F)cc2)nn1
[A] 89.2

[Q] // query viability, T/C value for entry CC1COCCN1c1cc(C2(S(C)(=N)=O)CC2)nc(-c2ccnc3[nH]ccc23)n1 (stereo not given) + Nc1ccc(C#CCN(C(=O)Cc2ncc(C(F)(F)F)cc2C(F)(F)F)c2ccc(F)cc2)nn1
[A] 95.3

[Q] // query viability, T/C value for entry Cn1ncnc1[C@H]1c2n[nH]c(=O)c3cc(F)cc(c23)N[C@@H]1c1ccc(F)cc1 + COC1C(OC(N)=O)C(O)C(Oc2ccc3c(O)c(NC(=O)c4ccc(O)c(CC=C(C)C)c4)c(=O)oc3c2C)OC1(C)C
[A] 105

[Q] // query viability, T/C value for entry COc1cccc(OCCCN)c1-c1cc(Nc2cnc(C#N)cn2)n[nH]1 + Nc1ccc(C#CCN(C(=O)Cc2ncc(C(F)(F)F)cc2C(F)(F)F)c2ccc(F)cc2)nn1
[A] 35.7

[Q] // query viability, T/C value for entry O=C(c1cc(Cc2n[nH]c(=O)c3ccccc23)ccc1F)N1CCN(C(=O)C2CC2)CC1 + Cc1cccc(N(C)C(=O)C2C(O)CCN2c2nc(C)cc(C(F)(F)F)c2C#N)c1
[A] 102

[Q] // query viability, T/C value for entry O=C(Nc1ccc(O)c(NS(=O)(=O)c2ccc(F)cc2)c1)c1ccc(-c2ccccc2)cc1 + Cc1cccc(N(C)C(=O)C2C(O)CCN2c2nc(C)cc(C(F)(F)F)c2C#N)c1
[A] 106

[Q] // query viability, T/C value for entry C#Cc1c(F)ccc2cc(O)cc(-c3ncc4c(N5CC6CCC(C5)N6)nc(OCC56CCCN5CC(F)C6)nc4c3F)c12 (stereo not given) + Cc1cccc(N(C)C(=O)C2C(O)CCN2c2nc(C)cc(C(F)(F)F)c2C#N)c1
[A] 99.2

[Q] // query viability, T/C value for entry C=CC(=O)N1CCN(c2nc(=O)n(-c3c(C)ccnc3C(C)C)c3nc(-c4c(O)cccc4F)c(F)cc23)C(C)C1 (stereo not given) + Nc1ccc(C#CCN(C(=O)Cc2ncc(C(F)(F)F)cc2C(F)(F)F)c2ccc(F)cc2)nn1
[A] 89.2

[Q] // query viability, T/C value for entry CNCc1ccc(-c2[nH]c3cc(F)cc4c3c2CCNC4=O)cc1 + Cc1cccc(N(C)C(=O)C2C(O)CCN2c2nc(C)cc(C(F)(F)F)c2C#N)c1
[A] 109

[Q] // query viability, T/C value for entry COc1cc(C2c3cc4c(cc3C(OC3OC5COC(C)OC5C(O)C3O)C3COC(=O)C23)OCO4)cc(OC)c1O (stereo not given) + COC1C(OC(N)=O)C(O)C(Oc2ccc3c(O)c(NC(=O)c4ccc(O)c(CC=C(C)C)c4)c(=O)oc3c2C)OC1(C)C
[A] 111
